// reported IC50 per item
biological target: p38 alpha (Homo sapiens); assay: P38 alpha enzyme inhibition assay (Alphascreen kinase activity assay); conditions: 100 pM p38 alpha, 2 hours preincubation at 25° C., 250 μM ATP, ATF-2 fusion protein; read-out: p38α inhibition
Sequence (Q16539 whole entry, the tested form may be a part): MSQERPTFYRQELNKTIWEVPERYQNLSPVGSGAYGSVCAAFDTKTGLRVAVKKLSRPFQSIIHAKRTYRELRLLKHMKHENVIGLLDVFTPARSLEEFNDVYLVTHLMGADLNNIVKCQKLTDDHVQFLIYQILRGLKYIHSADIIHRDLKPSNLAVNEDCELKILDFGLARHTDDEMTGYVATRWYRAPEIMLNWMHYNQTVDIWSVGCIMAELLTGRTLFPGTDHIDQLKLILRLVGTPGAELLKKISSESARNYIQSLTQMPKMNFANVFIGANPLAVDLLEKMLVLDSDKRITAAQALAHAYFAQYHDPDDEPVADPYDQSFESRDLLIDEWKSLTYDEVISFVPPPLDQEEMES
Where a name gives a salt, the structure may show the parent alone.

# count of solved cases: 2
CN1CC[C@H](NC(=O)c2nc(NC(=O)N[C@H]3CC[C@@H](Oc4ccc5nnc(C(C)(C)C)n5c4)c4ccccc43)cc(C(C)(C)C)n2)C1 | < 1 nM
COC(C)(C)c1nnc2ccc(O[C@@H]3CC[C@H](NC(=O)Nc4cc(C(C)(C)C)nc(C(=O)NCCCN5CCOCC5)n4)c4ccccc43)cn12 | 1 to 10 nM

GET /values?readout=IC50&item= COCC(C)(C)c1nnc2ccc(O[C@@H]3CC[C@H](NC(=O)Nc4cc(C(C)(C)C)nc(C(=O)NCC5(N(C)C)CCCCC5)n4)c4ccccc43)cn12
1 to 10 nM

Suppose we examine the compound COCCN(C)CCNC(=O)c1cc(NC(=O)N[C@H]2CC[C@@H](Oc3ccc4nnc(C(C)(C)C)n4c3)c3ccccc32)cc(C(C)(C)C)n1 ; what IC50 value has been reported?
1 to 10 nM

For the compound shown here, COCCN(CCNC(=O)c1nc(NC(=O)N[C@H]2CC[C@@H](Oc3ccc4nnc(C(C)(C)C)n4c3)c3ccccc32)cc(C(C)(C)C)n1)CCOC , give the reported IC50.
1 to 10 nM

Reported IC50 for C[C@H]1CCCCN1c1nnc2ccc(O[C@@H]3CC[C@H](NC(=O)Nc4cc(C(C)(C)C)ncn4)c4ccccc43)cn12 : what is it?
< 1 nM

Endpoint output: IC50 of CN(C)CC(C)(C)NC(=O)c1nc(NC(=O)N[C@H]2CC[C@@H](Oc3ccc4nnc(C(C)(C)C)n4c3)c3ccccc32)cc(C(C)(C)C)n1 . Value?
1 to 10 nM

Need IC50 of CC(C)(C)c1cc(NC(=O)N[C@H]2CC[C@@H](Oc3ccc4nnc(C(C)(C)C)n4c3)c3ccccc32)nc(C(=O)NCCCN2CCCOCC2)n1 [Example 111, formate salt] , thanks.
< 1 nM

Given the entry CN(C)C1(CNC(=O)c2nc(NC(=O)N[C@H]3CC[C@@H](Oc4ccc5nnc(C(C)(C)C)n5c4)c4ccccc43)cc(C(C)(C)C)n2)CCCCC1 , report its measured IC50.
1 to 10 nM

I'd like to know its IC50. The compound in question is COC1CN(CCNC(=O)c2cc(C(C)(C)C)cc(NC(=O)N[C@H]3CC[C@@H](Oc4ccc5nnc(C(C)(C)C)n5c4)c4ccccc43)n2)C1 [Example 210, formate salt]
< 1 nM

Name the reported IC50 value associated with the compound CN1CCN(Cc2nc(NC(=O)N[C@H]3CC[C@@H](Oc4ccc5nnc(C(C)(C)C)n5c4)c4ccccc43)cc(C(C)(C)C)n2)C(=O)C1 [Example 135, formate salt]
1 to 10 nM

// lookup IC50 for CN(CCO)C(=O)c1nc(NC(=O)N[C@H]2CC[C@@H](Oc3ccc4nnc(C(C)(C)C)n4c3)c3ccccc32)cc(C(C)(C)C)n1
1 to 10 nM

Return reported IC50; argument: CC(C)(C)c1cc(NC(=O)N[C@H]2CC[C@@H](Oc3ccc4nnc(C5(C)CCC5)n4c3)c3ccccc32)nc(C(=O)NCCN2CCOCC2)n1
< 1 nM

Tell me the measured IC50 of COCC(C)(C)c1nnc2ccc(O[C@@H]3CC[C@H](NC(=O)Nc4cc(C(C)(C)C)nc(C(=O)NCC(C)(C)N5CC(OC)C5)n4)c4ccccc43)cn12 , please.
1 to 10 nM

Give the measured IC50 of COCCN(C)CCNC(=O)c1nc(NC(=O)N[C@H]2CC[C@@H](Oc3ccc4nnc(C5(C)CC5)n4c3)c3ccccc32)cc(C(C)(C)C)n1 .
1 to 10 nM

Return reported IC50; argument: CC(C)(C)c1cc(NC(=O)N[C@H]2CC[C@@H](Oc3ccc4nnc(C(C)(C)C)n4c3)c3ccccc32)nc(C(=O)N[C@H]2C[C@H](CO)C2)n1
< 1 nM
